# System: streptokinase (SK)
# assay setup: compound conc. 40 μg/ml
Classify by measured SK Expression (% control): satisfied if it is equal to or exceeds 40 % control, not satisfied if it is smaller.

input: Is the recorded value of SK Expression (% control) equal to or greater than 40 % control for this molecule? C=CCn1c(SCc2ccc(NC(C)=O)cc2)nc2c(c1=O)C1(CCCCC1)Cc1ccccc1-2 [CCG-102491]
output: satisfied

input: Is the recorded value of SK Expression (% control) equal to or greater than 40 % control for this molecule? C=CCn1c(SCCOC)nc2c(c1=O)C(C)(C)c1ccccc1-2 [CCG-203572]
output: not satisfied

input: Is the recorded value of SK Expression (% control) equal to or greater than 40 % control for this molecule? C=CCn1c(SCc2cccc(OC)c2)nc2c(c1=O)C1(CCCCC1)Cc1ccccc1-2 [CCG-102485]
output: satisfied

input: Is the recorded value of SK Expression (% control) equal to or greater than 40 % control for this molecule? C=CCn1c(SCc2ccccc2)nc2c(c1=O)C(C)(C)Cc1ccccc1-2 [compound 25203]
output: satisfied

input: Is the recorded value of SK Expression (% control) equal to or greater than 40 % control for this molecule? C=CCn1c(SCCOC)nc2c(c1=O)CC(C)c1ccccc1-2 (stereo not drawn) [CCG-203574]
output: not satisfied

input: Is the recorded value of SK Expression (% control) equal to or greater than 40 % control for this molecule? C=CCn1c(OCC)nc2c(c1=O)C1(CCCCC1)Cc1ccccc1-2 [CCG-102622]
output: not satisfied

input: Is the recorded value of SK Expression (% control) equal to or greater than 40 % control for this molecule? C=CCn1c(SC)nc2c(c1=O)C1(CCCCC1)Cc1ccccc1-2 [CCG-102620]
output: not satisfied

input: Is the recorded value of SK Expression (% control) equal to or greater than 40 % control for this molecule? C=CCn1c(SCCOC)nc2c(c1=O)C(C)(C)Cc1ccccc1-2 [CCG-102624]
output: not satisfied

---

# Tested on: streptokinase (SK)
# assay setup: compound conc. 0.3 μg/ml
attribute measured: SK Expression (% control)
# unit: % control | format: bare number

{"columns": ["mol", "SK Expression (% control)"],
 "data": [
  ["C=CCn1c(SCCOC)nc2c(c1=O)C1(CCCCC1)Cc1ccccc1-2", 98],
  ["C=CCn1c(SCCOC)nc2c(c1=O)C(C)(C)Cc1ccccc1-2", 97],
  ["C=CCn1c(SCCO)nc2c(c1=O)C(C)(C)Cc1ccccc1-2", 90]
]}

input: Write down SK Expression (% control) measured for item C=CCn1c(NCC)nc2c(c1=O)C1(CCCCC1)Cc1ccccc1-2
output: 96

input: Write down SK Expression (% control) measured for item C=CCn1c(SCC(N)=O)nc2c(c1=O)C(C)(C)Cc1ccccc1-2
output: 97

input: Write down SK Expression (% control) measured for item C=CCn1c(SCc2ccccn2)nc2c(c1=O)C(C)(C)Cc1ccccc1-2
output: 95

---

# Test system: streptokinase (SK)
# assay setup: compound conc. 60 μg/ml
Reported SK Expression (% control) values for a set of compounds

Example compounds with recorded SK Expression (% control):
{"columns": ["mol", "measured target", "SK Expression (% control)"],
 "data": [
  ["CCn1c(SCc2ccccc2)nc2c(c1=O)C1(CCCC1)Cc1ccccc1-2", "streptokinase (SK)", "33 % control"],
  ["C=CCn1c(SCc2ccccc2)nc2c(c1=O)C(C)(C)Cc1ccccc1-2", "streptokinase (SK)", "52 % control"],
  ["C=CCn1c(SCC(N)=O)nc2c(c1=O)C(C)(C)Cc1ccccc1-2", "streptokinase (SK)", "38 % control"],
  ["C=CCn1c(NCC)nc2c(c1=O)C1(CCCCC1)Cc1ccccc1-2", "streptokinase (SK)", "24 % control"],
  ["C=CCn1c(SCc2ccccn2)nc2c(c1=O)C(C)(C)Cc1ccccc1-2", "streptokinase (SK)", "27 % control"]
]}

input: Write down SK Expression (% control) measured for item C=CCn1c(SCCOC)nc2c(c1=O)C(C)(C)Cc1ccccc1-2
output: 28 % control

input: Write down SK Expression (% control) measured for item C=CCn1c(SCCO)nc2c(c1=O)C(C)(C)Cc1ccccc1-2
output: 12 % control

input: Write down SK Expression (% control) measured for item C=CCn1c(SCc2ccccc2)nc2c(c1=O)C1(CCCCC1)Cc1ccccc1-2
output: 63 % control
